Test system: NAD(P)H oxidase
Experiment: IL-8 production inhibitory effect in HUVEC cultured with 44 mM glucose
Format: cell-based, human
Details: test compound concentration 0.1 μM, 8 days

line-notation: C[C@@H](Nc1nnc(-c2ccccc2)c2ccccc12)C1CCCCC1.O=C(O)/C=C\C(=O)O
inhibitory rate (%) of IL-8 production: 59.8
//
line-notation: Cc1cc(C)n(-c2nnc(-c3ccccc3)c3ccccc23)n1
inhibitory rate (%) of IL-8 production: 49.9
//
line-notation: O=C(O)c1nn(-c2ccccc2)c2ccccc2c1=O
inhibitory rate (%) of IL-8 production: 53.7
//
line-notation: N#Cc1nn(-c2ccccc2)c2ccccc2c1=O
inhibitory rate (%) of IL-8 production: 0
//
line-notation: N/C(=N\O)c1nn(-c2ccccc2)c2ccccc2c1=O
inhibitory rate (%) of IL-8 production: 43.9
//
line-notation: NC(=O)c1nn(-c2ccccc2)c2ccccc2c1=O
inhibitory rate (%) of IL-8 production: 98.3
//
line-notation: C[C@@H](Nc1nnc(-c2ccccc2)c2ccccc12)c1ccccc1
inhibitory rate (%) of IL-8 production: 77.8
